- testSummary: Cytotoxicity against mouse GT1-7 cells at 1 uM
- Format: cell-based
- condition: gt1-7, 1 µM

{"smilesStructure": "O=C1C=CC(=O)N1c1ccc(Cc2ccc(N3C(=O)C=CC3=O)cc2)cc1", "Activity": "Toxic"}
{"smilesStructure": "O=C(CN1CCCCC1)Nc1ccc(Cc2ccc(NC(=O)CN3CCCCC3)cc2)cc1", "Activity": "Toxic"}
{"smilesStructure": "Cc1nc2c(n1CCO)C(=O)c1nc(C)n(CCO)c1C2=O", "Activity": "Toxic"}
{"smilesStructure": "O=C(CN1CCOCC1)Nc1ccc(Cc2ccc(NC(=O)CN3CCOCC3)cc2)cc1", "Activity": "Toxic"}
{"smilesStructure": "O=C(Nc1ccc(I)cc1C(=O)O)c1ccc(Cl)cc1", "Activity": "Toxic"}
{"smilesStructure": "O=c1n(S(=O)(=O)c2ccc(Cl)cc2)c2ccccc2n1S(=O)(=O)c1ccc(Cl)cc1", "Activity": "Toxic"}
{"smilesStructure": "O=C(c1ccc(I)c([N+](=O)[O-])c1)c1ccc(I)c([N+](=O)[O-])c1", "Activity": "Toxic"}
{"smilesStructure": "CC(=O)[C@H]1CC[C@H]2[C@@H]3C[C@H](O)[C@@H]4C[C@H](O)CC[C@]4(C)[C@H]3CC[C@]12C", "Activity": "Toxic"}
{"smilesStructure": "O=C(Nc1ccc(I)cc1)c1ccccc1I", "Activity": "Toxic"}
{"smilesStructure": "COc1ccc(C(=O)N=C2C=C(Br)C(=O)C(Br)=C2)cc1", "Activity": "Toxic"}
{"smilesStructure": "Cc1ccc(C(=O)Nc2cccc([N+](=O)[O-])c2C)cc1I", "Activity": "Toxic"}
